Data origin: ChEMBL document CHEMBL4513149

system: Escherichia coli; test: microbe, parasite or virus in culture; details: ATCC 25922, 18 h, ASSAY_TEST Inhibition of Bacterial Growth, detection method Absorption (OD600), MEDIA CAMHB, plate type 384well, NBS, CORNING #3640
Description: Antibacterial activity against Escherichia coli ATCC 25922 (CO-ADD:GN_001); MIC in CAMBH media using NBS plates, by OD(600)
Reported Endpoint: MIC

- Compound: "O=C(Nc1ccc(C(F)(F)F)c(C(F)(F)F)c1)c1cc(Cl)ccc1O"
  Target Or System: "Escherichia coli"
  Reported Endpoint: "MIC"
  Result: "> 10 µM"
- Compound: "C[C@@H]1[C@H](O)[C@@H](C)/C=C/C=C/C=C/C=C/C=C/C=C/C=C/[C@H](O[C@@H]2O[C@H](C)[C@@H](O)[C@H](N)[C@@H]2O)C[C@@H]2O[C@](O)(C[C@@H](O)C[C@@H](O)[C@H](O)CC[C@@H](O)C[C@@H](O)CC(=O)O[C@H]1C)C[C@H](O)[C@H]2C(=O)O [AMPHOTERICIN B]"
  Target Or System: "Escherichia coli"
  Reported Endpoint: "MIC"
  Result: "> 10 µM"

Please look at the following compound next.
Recorded MIC (compound Cc1ccc2c(c1C)NC(=O)C21NN=C(c2ccccc2)S1 (stereo not drawn) ): > 10 µM

---

system: Staphylococcus aureus; experiment: microbe, parasite or virus in culture; settings: ATCC 43300, 18 h, ASSAY_TEST Inhibition of Bacterial Growth, detection method Absorption (OD600), MEDIA CAMHB, plate type 384well, NBS, CORNING #3640
Description: Antibacterial activity against Staphylococcus aureus MRSA ATCC 43300 (CO-ADD:GP_020); MIC in CAMBH media, using NBS plates, by OD(600)
Reported Endpoint: MIC

Known results for molecules:
- Molecule: "O=C1O[C@@H](COc2ccon2)CN1c1cc(F)c(C2=CCN(Cc3ccccc3)CC2)c(F)c1"
  Result: "> 10 µM"
- Molecule: "COc1cccc(-c2nc3c(N4CCCC4)cccc3n2CC2CCCN2)n1 (configuration not stated)"
  Result: "10 µM"
- Molecule: "O=C(Nc1cccnc1)c1c(O)c2cccc3c2n(c1=O)CC3"
  Result: "> 10 µM"
- Molecule: "O=C(c1ccco1)N(CCCn1ccnc1)c1nc2c(Cl)cccc2s1"
  Result: "> 10 µM"
- Molecule: "CCc1nn(C)c(C(=O)NCc2ccc(Oc3ccc(C)cc3)cc2)c1Cl [TOLFENPYRAD]"
  Result: "> 10 µM"
- Molecule: "Brc1cncc(-c2cc(NCCCn3ccnc3)nc(-c3ccccc3)n2)c1"
  Result: "> 10 µM"

Recorded MIC (molecule C[C@@H]1[C@H](O)[C@@H](C)/C=C/C=C/C=C/C=C/C=C/C=C/C=C/[C@H](O[C@@H]2O[C@H](C)[C@@H](O)[C@H](N)[C@@H]2O)C[C@@H]2O[C@](O)(C[C@@H](O)C[C@@H](O)[C@H](O)CC[C@@H](O)C[C@@H](O)CC(=O)O[C@H]1C)C[C@H](O)[C@H]2C(=O)O [AMPHOTERICIN B] ): > 10 µM

Recorded MIC (molecule Clc1cccc(C(c2ccc(CN3CCNCC3)cc2)n2ccnc2)c1 (configuration not stated) ): > 10 µM

Recorded MIC (molecule CC(C)(C)[C@H]1CC[C@H](CC2=C(O)C(=O)c3ccccc3C2=O)CC1 [BUPARVAQUONE] ): > 10 µM

Recorded MIC (molecule COc1ccc(OC)c(NCc2ccc3nc(N)nc(N)c3c2Cl)c1 ): 0.625 µM

Recorded MIC (molecule CC[C@@H]([C@H](C)O)n1ncn(-c2ccc(N3CCN(c4ccc(OC[C@@H]5CO[C@@](Cn6cncn6)(c6ccc(F)cc6F)C5)cc4)CC3)cc2)c1=O [POSACONAZOLE] ): > 10 µM

Recorded MIC (molecule CC(=O)NCC1CN(c2ccc(-c3ccc(CNCc4cn[nH]n4)cc3)c(F)c2)C(=O)O1 (configuration not stated) ): 10 µM

Recorded MIC (molecule CC1COC(Cn2cncn2)(c2ccc(Oc3ccc(Cl)cc3)cc2Cl)O1 (configuration not stated) [DIFENOCONAZOLE] ): > 10 µM

Recorded MIC (molecule Nc1ccc2ncnc(Nc3ccc(OCc4cccc(F)c4)c(Cl)c3)c2c1 ): > 10 µM

Recorded MIC (molecule COc1cccc(-n2nnnc2S(=O)(=O)Cc2ccccc2)c1 ): > 10 µM

Recorded MIC (molecule COC(=O)Nc1nc2cc(C(=O)c3ccccc3)ccc2[nH]1 [MEBENDAZOLE] ): > 10 µM

Recorded MIC (molecule Cc1cc(NCCc2ccccc2)nc(NC(=N)Nc2ccc(Cl)cc2)n1 ): > 10 µM

---

system: Staphylococcus aureus; test: microbe, parasite or virus in culture; conditions: ATCC 43300, 18 h, ASSAY_TEST Inhibition of Bacterial Growth, detection method Absorption (OD600), MEDIA CAMHB, plate type 384well, NBS, CORNING #3640
Here the recorded MIC is given for each entry.

Known results for compounds:
- Compound: "CCc1c(C)nc(-n2nc(C)cc2NC(=O)c2ccccc2SC)[nH]c1=O"
  MIC: "> 10 µM"
- Compound: "CC(C)(C)C(O)C(Oc1ccc(-c2ccccc2)cc1)n1cncn1 (configuration not stated)"
  MIC: "> 10 µM"

Recorded MIC (compound O=C(Nc1nnc(-c2ccc(Cl)cc2)o1)c1cccc(C(F)(F)F)c1 ): > 10 µM

Recorded MIC (compound Cc1[nH]c2ccccc2c1C(c1cccs1)N1CCN(C)CC1 (configuration not stated) ): > 10 µM

Recorded MIC (compound CO/C=C(/C(=O)OC)c1ccccc1Oc1cc(Oc2ccccc2C#N)ncn1 ): > 10 µM

Recorded MIC (compound CC(c1cc(Cl)cc(Cl)c1)N(C)c1ncc2c(N)nc(N)nc2n1 (configuration not stated) ): 10 µM

Recorded MIC (compound N=C(N)Nc1ccc(-c2ccc(-c3ccc(N=C(N)N)c(Cl)c3)o2)cc1Cl ): 10 µM

Recorded MIC (compound COc1cc(C2=NCCN2)cc2cc(-c3ccc(C4=NCCN4)cc3)oc12 ): > 10 µM

Recorded MIC (compound O=C(COc1cccc(F)c1)Nc1nc(-c2ccccn2)cs1 ): > 10 µM

Recorded MIC (compound Cc1nn2c(=O)c3c([nH]c2c1-c1ccc(Cl)cc1)CCCC3 ): > 10 µM

Recorded MIC (compound CCCn1c(NC(=O)c2ccc3ccccc3n2)nc2ccccc21 ): > 10 µM

Recorded MIC (compound Nc1nc2cc(-c3cncc(Oc4ccc(F)cc4)c3)ccc2[nH]1 ): > 10 µM

Recorded MIC (compound Oc1c(I)cc(I)c2cccnc12 ): > 10 µM

Recorded MIC (compound Cc1cc(NC(=O)c2ccc(Oc3ccc(Cl)cc3O)o2)no1 ): > 10 µM

Recorded MIC (compound N=C(N)Nc1ccc(-c2ccc(-c3ccc(NC(=N)N)cc3Cl)o2)c(Cl)c1 ): 1.25 µM

Recorded MIC (compound O=C(Nc1ccc(N2CCNCC2)cc1)c1ccn2ncc(-c3cccc(Cl)c3)c2n1 ): > 10 µM

Recorded MIC (compound c1csc(-c2cnc3sc(NCC4CCOCC4)nn23)c1 ): > 10 µM

---

Here the recorded MIC is given for each entry.
system: Staphylococcus aureus; experiment: microbe, parasite or virus in culture; settings: ATCC 43300, 18 h, ASSAY_TEST Inhibition of Bacterial Growth, detection method Absorption (OD600), MEDIA CAMHB, plate type 384well, NBS, CORNING #3640

Known results for compounds:
- Compound: "CO/N=C(\\C(=O)OC)c1ccccc1CO/N=C(\\C)c1cccc(C(F)(F)F)c1"
  Target Or System: "Staphylococcus aureus"
  Result: "> 10 µM"
- Compound: "CC(=O)NC[C@H]1CN(c2ccc(N3CCSCC3)c(F)c2)C(=O)O1"
  Target Or System: "Staphylococcus aureus"
  Result: "5 µM"
- Compound: "NC(CC(=O)c1ccc(Cl)cc1Cl)C(Cl)(Cl)Cl (stereo not drawn)"
  Target Or System: "Staphylococcus aureus"
  Result: "> 10 µM"

Recorded MIC (compound CC(=O)NCC1CN(c2ccc(-c3ccc(CO)cc3)c(F)c2)C(=O)O1 (stereo not drawn) ): 1.25 µM

Recorded MIC (compound CC(=O)NC[C@@H]1CN(c2ccc(N3CCOCC3)c(F)c2)C(=O)O1 ): 2.5 µM

Recorded MIC (compound NCCN(C(=O)c1ccc(Cl)cc1Cl)c1ccc(OCc2ccc(Cl)cc2)cc1 ): 10 µM

Recorded MIC (compound COc1cccc(-n2nnnc2S(C)(=O)=O)c1 ): > 10 µM

Recorded MIC (compound N=C(N)c1ccc(OCCCCCOc2ccc(C(=N)N)cc2)cc1 [PENTAMIDINE ISETHIONATE] ): > 10 µM

Recorded MIC (compound FC(F)(F)c1cnc(Sc2nnc(-c3ccncc3)o2)c(Cl)c1 ): 10 µM

Recorded MIC (compound CCOC(=O)NC(=O)c1ccsc1NC(=O)c1nc2ccccc2s1 ): > 10 µM

Recorded MIC (compound O=C(Nc1ccc2c(c1)B(O)OC2)c1ccccc1C(F)(F)F ): > 10 µM

Recorded MIC (compound CC(=O)N1CCN(c2ccc(Oc3ccc(Cl)cc3O)cc2)CC1 ): > 10 µM

Recorded MIC (compound O=C1O[C@@H](CO)CN1c1cc(F)c(C2=CCN(Cc3ccccc3)CC2)c(F)c1 ): > 10 µM
